UniProt O42275 measurements of pIC50, listed per entry.
pIC50: −log10 of the molar value.

>  <COMPOUND>
Cc1ccc(C2Cc3c(C#N)c(N)c(C#N)c(-c4ccc(Cl)cc4)c3S2)cc1 (racemic)

>  <pIC50>
4.87

$$$$
>  <COMPOUND>
COc1ccc(C2Cc3c(C#N)c(N)c(C#N)c(-c4ccc(C)cc4)c3S2)cc1 (racemic)

>  <pIC50>
4.94

$$$$
>  <COMPOUND>
Cc1ccc(C2Cc3c(C#N)c(N)c(C#N)c(-c4ccc(Br)cc4)c3S2)cc1 (racemic)

>  <pIC50>
4.62

$$$$
>  <COMPOUND>
Cc1ccc(-c2c(C#N)c(N)c(C#N)c3c2SC(c2ccccc2)C3)cc1 (racemic)

>  <pIC50>
5.02

$$$$
>  <COMPOUND>
COc1ccc(-c2c(C#N)c(N)c(C#N)c3c2SC(c2ccccc2)C3)cc1 (racemic)

>  <pIC50>
5.29

$$$$

====

Acetylcholinesterase (Electrophorus electricus, UniProt O42275) measurements of IC50, listed per entry.
Sequence (O42275 whole entry): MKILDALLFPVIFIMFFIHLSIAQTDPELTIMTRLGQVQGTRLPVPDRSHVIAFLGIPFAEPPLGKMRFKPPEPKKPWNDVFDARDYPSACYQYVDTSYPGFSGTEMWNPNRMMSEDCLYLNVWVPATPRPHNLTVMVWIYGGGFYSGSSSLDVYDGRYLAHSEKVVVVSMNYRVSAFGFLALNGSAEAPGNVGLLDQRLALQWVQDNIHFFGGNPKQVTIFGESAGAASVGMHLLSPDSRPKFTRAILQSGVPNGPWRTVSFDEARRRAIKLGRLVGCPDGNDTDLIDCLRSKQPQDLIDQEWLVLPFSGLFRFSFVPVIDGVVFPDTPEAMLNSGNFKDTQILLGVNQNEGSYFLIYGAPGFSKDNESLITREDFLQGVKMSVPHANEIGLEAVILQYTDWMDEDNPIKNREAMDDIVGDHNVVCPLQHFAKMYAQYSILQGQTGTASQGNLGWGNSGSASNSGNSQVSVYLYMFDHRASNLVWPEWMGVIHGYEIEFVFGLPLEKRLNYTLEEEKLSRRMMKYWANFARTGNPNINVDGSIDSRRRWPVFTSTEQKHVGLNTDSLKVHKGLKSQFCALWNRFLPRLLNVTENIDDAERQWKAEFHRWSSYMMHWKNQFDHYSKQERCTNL

>  <COMPOUND>
CC(C)c1ccc(C2Cc3c(C#N)c(N)c(C#N)c(-c4ccc(F)cc4)c3S2)cc1 (racemic)

>  <IC50>
44.2 µM

$$$$
>  <COMPOUND>
Cc1ccc(-c2c(C#N)c(N)c(C#N)c3c2SC(c2ccc(Cl)cc2)C3)cc1 (racemic)

>  <IC50>
17.3 µM

$$$$
>  <COMPOUND>
Cc1ccc(-c2c(C#N)c(N)c(C#N)c3c2SC(c2ccc(C)cc2)C3)cc1 (racemic)

>  <IC50>
4.24 µM

$$$$
>  <COMPOUND>
N#Cc1c(N)c(C#N)c(-c2ccc(Cl)cc2)c2c1CC(c1ccccc1)S2 (racemic)

>  <IC50>
29.2 µM

$$$$
>  <COMPOUND>
CC(C)c1ccc(C2Cc3c(C#N)c(N)c(C#N)c(-c4ccc(Cl)cc4)c3S2)cc1 (racemic)

>  <IC50>
48.3 µM

$$$$
>  <COMPOUND>
COc1ccc(-c2c(C#N)c(N)c(C#N)c3c2SC(c2ccc(C)cc2)C3)cc1 (racemic)

>  <IC50>
11.3 µM

$$$$
>  <COMPOUND>
N#Cc1c(N)c(C#N)c(-c2ccc(Br)cc2)c2c1CC(c1ccccc1)S2 (racemic)

>  <IC50>
37.9 µM

$$$$
>  <COMPOUND>
N#Cc1c(N)c(C#N)c(-c2ccc(F)cc2)c2c1CC(c1ccc(Cl)cc1)S2 (racemic)

>  <IC50>
39.2 µM

$$$$
>  <COMPOUND>
COc1ccc(-c2c(C#N)c(N)c(C#N)c3c2SC(c2ccc(OC)cc2)C3)cc1 (racemic)

>  <IC50>
4.16 µM

$$$$
>  <COMPOUND>
CC(C)c1ccc(-c2c(C#N)c(N)c(C#N)c3c2SC(c2ccccc2)C3)cc1 (racemic)

>  <IC50>
37.1 µM

$$$$
